The measured values listed here are drawn from the supplement of paper PMC10307832.

# relative viability annotations
# Test system: NCI-H1993
# protocolDescription: relative viability (nuclei count vs DMSO), 5 days (fraction); higher = more cells survive
# conditionParameters: first compound 0.08 µM
Hey, just send me the number, nothing else.

Some entries whose results are on file:
>>> recordedresult("O=c1[nH]c2ccccc2n1C1CCN(CCCC(c2ccc(F)cc2)c2ccc(F)cc2)CC1 [Pimozide] + CC(C)C[C@H](NC(=O)[C@H](Cc1ccccc1)NC(=O)c1cnccn1)B(O)O [Bortezomib] (partner 0.002 µM)")
0.89
>>> recordedresult("Cc1cnc(-c2cnc(NCCNc3ccc(C#N)cn3)nc2-c2ccc(Cl)cc2Cl)[nH]1 + Nc1ncn([C@H]2C[C@H](O)[C@@H](CO)O2)c(=O)n1 [Decitabine] (partner 2 µM)")
0.744
>>> recordedresult("O=c1[nH]c2ccccc2n1C1CCN(CCCC(c2ccc(F)cc2)c2ccc(F)cc2)CC1 [Pimozide] + N=C(N)NC(=N)NCCc1ccccc1 [Phenformin] (partner 250 µM)")
0.477
>>> recordedresult("O=c1[nH]c2ccccc2n1C1CCN(CCCC(c2ccc(F)cc2)c2ccc(F)cc2)CC1 [Pimozide] + CS(=O)(=O)N1CCN(Cc2cc3nc(-c4cccc5[nH]ncc45)nc(N4CCOCC4)c3s2)CC1 [Pictilisib] (partner 1 µM)")
0.751

Next up:
Problem: Which relative viability reading was recorded for the compound Cc1cnc(-c2cnc(NCCNc3ccc(C#N)cn3)nc2-c2ccc(Cl)cc2Cl)[nH]1 + C[C@]1(O)C[C@@H](c2nc(-c3ccc4ccc(-c5ccccc5)nc4c3)c3c(N)nccn32)C1 [Linsitinib] (partner 1 µM) ?
Solution: 0.74

###

# Tested on: LOU-NH91
# protocolDescription: relative viability (nuclei count vs DMSO), 5 days (fraction); higher = more cells survive
# conditionParameters: first compound 0.8 µM
Consider the cut-off 0.6. If the recorded relative viability is strictly smaller, the label is true (1); if not, the label is false (0).

>>> labelclass("O=c1[nH]c2ccccc2n1C1CCN(CCCC(c2ccc(F)cc2)c2ccc(F)cc2)CC1 [Pimozide] + Cc1cc(Nc2cc(N3CCN(C)CC3)nc(Sc3ccc(NC(=O)C4CC4)cc3)n2)n[nH]1 [Tozasertib] (partner 0.1 µM)")
"true (1)"
>>> labelclass("O=c1[nH]c2ccccc2n1C1CCN(CCCC(c2ccc(F)cc2)c2ccc(F)cc2)CC1 [Pimozide] + CCNC(=O)c1noc(-c2cc(C(C)C)c(O)cc2O)c1-c1ccc(CN2CCOCC2)cc1 [Luminespib] (partner 0.01 µM)")
"true (1)"
>>> labelclass("Cc1cnc(-c2cnc(NCCNc3ccc(C#N)cn3)nc2-c2ccc(Cl)cc2Cl)[nH]1 + CCNC(=O)c1noc(-c2cc(C(C)C)c(O)cc2O)c1-c1ccc(CN2CCOCC2)cc1 [Luminespib] (partner 0.01 µM)")
"true (1)"
>>> labelclass("Cc1cnc(-c2cnc(NCCNc3ccc(C#N)cn3)nc2-c2ccc(Cl)cc2Cl)[nH]1 + N=C(N)NC(=N)NCCc1ccccc1 [Phenformin] (partner 250 µM)")
"false (0)"

Okay, next one:
Problem: Would you kindly verify if relative viability of Cc1cnc(-c2cnc(NCCNc3ccc(C#N)cn3)nc2-c2ccc(Cl)cc2Cl)[nH]1 + CS(=O)(=O)N1CCN(Cc2cc3nc(-c4cccc5[nH]ncc45)nc(N4CCOCC4)c3s2)CC1 [Pictilisib] (partner 1 µM) is strictly less than 0.6?
Solution: true (1)

###

# Tested on: NCI-H1793
# protocolDescription: relative viability (nuclei count vs DMSO), 5 days (fraction); higher = more cells survive
# conditionParameters: first compound 0.05 µM
Consider the cut-off 0.4. If the recorded relative viability is strictly smaller, the label is TRUE; if not, the label is FALSE.

>>> labelclass("Nc1ccn([C@@H]2O[C@H](CO)[C@@H](O)[C@@H]2O)c(=O)n1 [Cytarabine] + NC(=O)Nc1cc(-c2cccc(F)c2)sc1C(=O)N[C@H]1CCCNC1 [AZD7762] (partner 0.2 µM)")
"TRUE"

Okay, next one:
Problem: Would you kindly verify if relative viability of Nc1ccn([C@@H]2O[C@H](CO)[C@@H](O)[C@@H]2O)c(=O)n1 [Cytarabine] + N=C(N)NC(=N)NCCc1ccccc1 [Phenformin] (partner 250 µM) is strictly less than 0.4?
Solution: TRUE

###

# Tested on: NCI-H3122
# protocolDescription: relative viability (nuclei count vs DMSO), 5 days (fraction); higher = more cells survive
# conditionParameters: first compound 0.02 µM
readoutKind: relative viability
Hey, just send me the number, nothing else.

Problem: Which relative viability reading was recorded for the molecule CC(=O)O[C@@]12CO[C@@H]1C[C@H](O)[C@@]1(C)C(=O)[C@H](O)C3=C(C)[C@@H](OC(=O)[C@H](O)[C@@H](NC(=O)OC(C)(C)C)c4ccccc4)C[C@@](O)([C@@H](OC(=O)c4ccccc4)[C@H]21)C3(C)C [Docetaxel] + NC(=O)Nc1cc(-c2cccc(F)c2)sc1C(=O)N[C@H]1CCCNC1 [AZD7762] (partner 0.2 µM) ?
Solution: 0.121

###

# relative viability annotations
# Test system: ChaGo-K-1
# protocolDescription: relative viability (nuclei count vs DMSO), 5 days (fraction); higher = more cells survive
# conditionParameters: first compound 0.05 µM
Hey, just send me the number, nothing else.

Some entries whose results are on file:
>>> recordedresult("Nc1ccn([C@@H]2O[C@H](CO)[C@@H](O)[C@@H]2O)c(=O)n1 [Cytarabine] + Nc1nc2[nH]cc(CCc3ccc(C(=O)N[C@@H](CCC(=O)O)C(=O)O)cc3)c2c(=O)[nH]1 [Pemetrexed] (partner 0.2 µM)")
0.239
>>> recordedresult("Nc1ccn([C@@H]2O[C@H](CO)[C@@H](O)[C@@H]2O)c(=O)n1 [Cytarabine] + Cc1nc(Nc2ncc(C(=O)Nc3c(C)cccc3Cl)s2)cc(N2CCN(CCO)CC2)n1 [Dasatinib] (partner 0.075 µM)")
0.384
>>> recordedresult("COc1cc2nccc(Oc3ccc(NC(=O)Nc4cc(C)on4)c(Cl)c3)c2cc1OC [Tivozanib] + N=C(N)NC(=N)NCCc1ccccc1 [Phenformin] (partner 250 µM)")
0.492

Problem: Which relative viability reading was recorded for the molecule COc1cc2nccc(Oc3ccc(NC(=O)Nc4cc(C)on4)c(Cl)c3)c2cc1OC [Tivozanib] + Cc1nc(Nc2ncc(C(=O)Nc3c(C)cccc3Cl)s2)cc(N2CCN(CCO)CC2)n1 [Dasatinib] (partner 0.075 µM) ?
Solution: 0.626

Problem: Which relative viability reading was recorded for the molecule COc1cc2nccc(Oc3ccc(NC(=O)Nc4cc(C)on4)c(Cl)c3)c2cc1OC [Tivozanib] + CCNC(=O)c1noc(-c2cc(C(C)C)c(O)cc2O)c1-c1ccc(CN2CCOCC2)cc1 [Luminespib] (partner 0.01 µM) ?
Solution: 0.593

###

# relative viability annotations
# Tested on: NCI-H3122
# protocolDescription: relative viability (nuclei count vs DMSO), 5 days (fraction); higher = more cells survive
# conditionParameters: first compound 0.1581 µM
Hey, just send me the number, nothing else.

Some entries whose results are on file:
>>> recordedresult("COc1cc2nccc(Oc3ccc(NC(=O)Nc4cc(C)on4)c(Cl)c3)c2cc1OC [Tivozanib] + CCNC(=O)c1noc(-c2cc(C(C)C)c(O)cc2O)c1-c1ccc(CN2CCOCC2)cc1 [Luminespib] (partner 0.01 µM)")
0.0689
>>> recordedresult("COc1cc2nccc(Oc3ccc(NC(=O)Nc4cc(C)on4)c(Cl)c3)c2cc1OC [Tivozanib] + NC(=O)Nc1cc(-c2cccc(F)c2)sc1C(=O)N[C@H]1CCCNC1 [AZD7762] (partner 0.2 µM)")
1.02
>>> recordedresult("COc1cc2nccc(Oc3ccc(NC(=O)Nc4cc(C)on4)c(Cl)c3)c2cc1OC [Tivozanib] + O=C(CCCCCCC(=O)Nc1ccccc1)NO [Vorinostat] (partner 1 µM)")
1.03

Next up:
Problem: Which relative viability reading was recorded for the molecule Nc1ccn([C@@H]2O[C@H](CO)[C@@H](O)[C@@H]2O)c(=O)n1 [Cytarabine] + CC1(C)CCC(c2ccc(Cl)cc2)=C(CN2CCN(c3ccc(C(=O)NS(=O)(=O)c4ccc(N[C@H](CCN5CCOCC5)CSc5ccccc5)c(S(=O)(=O)C(F)(F)F)c4)cc3)CC2)C1 [Navitoclax] (partner 0.5 µM) ?
Solution: 0.682

###

# Test system: NCI-H661
# protocolDescription: relative viability (nuclei count vs DMSO), 5 days (fraction); higher = more cells survive
# conditionParameters: first compound 2.53 µM
Note: every record was labeled by where its relative viability sits among lowest = under 0.5, middle = from 0.5 up to 0.8, highest = 0.8 and over

>>> labelclass("Cc1cnc(-c2cnc(NCCNc3ccc(C#N)cn3)nc2-c2ccc(Cl)cc2Cl)[nH]1 + CCNC(=O)c1noc(-c2cc(C(C)C)c(O)cc2O)c1-c1ccc(CN2CCOCC2)cc1 [Luminespib] (partner 0.01 µM)")
"highest"
>>> labelclass("O=c1[nH]c2ccccc2n1C1CCN(CCCC(c2ccc(F)cc2)c2ccc(F)cc2)CC1 [Pimozide] + CS(=O)(=O)N1CCN(Cc2cc3nc(-c4cccc5[nH]ncc45)nc(N4CCOCC4)c3s2)CC1 [Pictilisib] (partner 1 µM)")
"lowest"
>>> labelclass("O=c1[nH]c2ccccc2n1C1CCN(CCCC(c2ccc(F)cc2)c2ccc(F)cc2)CC1 [Pimozide] + CC(C)C[C@H](NC(=O)[C@H](Cc1ccccc1)NC(=O)c1cnccn1)B(O)O [Bortezomib] (partner 0.002 µM)")
"middle"
>>> labelclass("O=c1[nH]c2ccccc2n1C1CCN(CCCC(c2ccc(F)cc2)c2ccc(F)cc2)CC1 [Pimozide] + Cc1cc(Nc2cc(N3CCN(C)CC3)nc(Sc3ccc(NC(=O)C4CC4)cc3)n2)n[nH]1 [Tozasertib] (partner 0.1 µM)")
"lowest"

Okay, next one:
Problem: Please let me know in which category the item O=c1[nH]c2ccccc2n1C1CCN(CCCC(c2ccc(F)cc2)c2ccc(F)cc2)CC1 [Pimozide] + COc1cc2c(Oc3ccc(NC(=O)C4(C(=O)Nc5ccc(F)cc5)CC4)cc3F)ccnc2cc1OCCCN1CCOCC1 [Foretinib] (partner 0.25 µM) belongs.
Solution: highest
